Experiment: Lipophilicity, log P of the compound by HPLC analysis
Format: physicochemical
Consider the following molecules; for each one, report its logP.
Give bare numbers.

CHEMICAL STRING: COCc1cc(N)c(Nc2ccc(C#N)cc2)cc1Oc1c(C)cc(CCC#N)cc1C
logP: 3.25
//
CHEMICAL STRING: COCc1cc(N)c(Nc2ccc(C#N)cc2)cc1Oc1c(C)cc(/C=C/C#N)cc1C
logP: 4.13
//
CHEMICAL STRING: Cc1cc(C#N)cc(C)c1Oc1cc(Nc2ccc(C#N)cc2)c(N)cc1CNC1CC1
logP: 3.84
//
CHEMICAL STRING: CC(=O)OCc1cc(N)c(Nc2ccc(C#N)cc2)cc1Oc1c(C)cc(C#N)cc1C
logP: 4.4

According to the records, this molecule COCc1cc(N)c(Nc2ccc(C#N)cc2)cc1Oc1c(C)cc(C#N)cc1C displays logP of 3.84
